- Tested on: Staphylococcus aureus ATCC 6538
- EXPERIMENT DESCRIPTION: Antimicrobial activity, MIC determination
- Type: cell-based
- CONDITION CONTEXT: S. aureus; 24-h incubation, 37°C
MIC (values in parentheses): recorded values

{"MOLECULE": "CN1CCN(c2c(F)cc3c(=O)c(C(=O)[O-])cn(CCF)c3c2F)CC1.[Cl-].[Cu+2].c1cnc2c(c1)ccc1cccnc12 [complex 8, [Cu(flrx)(phen)Cl]]", "CENSORING SIGN": "=", "MIC (values in parentheses) (µM)": 12.3}
{"MOLECULE": "CN1CCN(c2c(F)cc3c(=O)c(C(=O)[O-])cn(CCF)c3c2F)CC1.CN1CCN(c2c(F)cc3c(=O)c(C(=O)[O-])cn(CCF)c3c2F)CC1.[Zn+2].c1ccc(Nc2ccccn2)nc1 [complex 13, [Zn(flrx)2(bipyam)]]", "CENSORING SIGN": "=", "MIC (values in parentheses) (µM)": 8.2}
{"MOLECULE": "CN1CCN(c2c(F)cc3c(=O)c(C(=O)[O-])cn(CCF)c3c2F)CC1.CN1CCN(c2c(F)cc3c(=O)c(C(=O)[O-])cn(CCF)c3c2F)CC1.[Zn+2].c1ccc(-c2ccccn2)nc1 [complex 12, [Zn(flrx)2(bipy)]]", "CENSORING SIGN": "=", "MIC (values in parentheses) (µM)": 8.3}
{"MOLECULE": "CN1CCN(c2c(F)cc3c(=O)c(C(=O)[O-])cn(CCF)c3c2F)CC1.[Cl-].[Cu+2].c1ccc(Nc2ccccn2)nc1 [complex 7, [Cu(flrx)(bipyam)Cl]]", "CENSORING SIGN": ">", "MIC (values in parentheses) (µM)": 25.0}
{"MOLECULE": "CN1CCN(c2c(F)cc3c(=O)c(C(=O)[O-])cn(CCF)c3c2F)CC1.CN1CCN(c2c(F)cc3c(=O)c(C(=O)[O-])cn(CCF)c3c2F)CC1.[Ni+2].c1cnc2c(c1)ccc1cccnc12 [complex 19, [Ni(flrx)2(phen)]]", "CENSORING SIGN": "=", "MIC (values in parentheses) (µM)": 8.2}
{"MOLECULE": "CN1CCN(c2c(F)cc3c(=O)c(C(=O)[O-])cn(CCF)c3c2F)CC1.[Cl-].[Cu+2].c1ccc(-c2ccccn2)nc1 [complex 6, [Cu(flrx)(bipy)Cl]]", "CENSORING SIGN": "=", "MIC (values in parentheses) (µM)": 6.4}
{"MOLECULE": "CN1CCN(c2c(F)cc3c(=O)c(C(=O)[O-])cn(CCF)c3c2F)CC1.CN1CCN(c2c(F)cc3c(=O)c(C(=O)[O-])cn(CCF)c3c2F)CC1.CO.CO.[Zn+2] [complex 3, [Zn(flrx)2(MeOH)2]]", "CENSORING SIGN": "=", "MIC (values in parentheses) (µM)": 9.2}
{"MOLECULE": "CN1CCN(c2c(F)cc3c(=O)c(C(=O)[O-])cn(CCF)c3c2F)CC1.CN1CCN(c2c(F)cc3c(=O)c(C(=O)[O-])cn(CCF)c3c2F)CC1.[Zn+2].c1cnc2c(c1)ccc1cccnc12 [complex 14, [Zn(flrx)2(phen)]]", "CENSORING SIGN": "=", "MIC (values in parentheses) (µM)": 8.1}
{"MOLECULE": "CN1CCN(c2c(F)cc3c(=O)c(C(=O)[O-])cn(CCF)c3c2F)CC1.CN1CCN(c2c(F)cc3c(=O)c(C(=O)[O-])cn(CCF)c3c2F)CC1.[Ni+2].c1ccc(Nc2ccccn2)nc1 [complex 18, [Ni(flrx)2(bipyam)]]", "CENSORING SIGN": "=", "MIC (values in parentheses) (µM)": 8.3}
{"MOLECULE": "CN1CCN(c2c(F)cc3c(=O)c(C(=O)[O-])cn(CCF)c3c2F)CC1.CN1CCN(c2c(F)cc3c(=O)c(C(=O)[O-])cn(CCF)c3c2F)CC1.[Cu+2] [complex 1, [Cu(flrx)2]]", "CENSORING SIGN": "=", "MIC (values in parentheses) (µM)": 10.0}
